Ref: ChEMBL document CHEMBL1142149

Test system: Streptococcus pyogenes
Assay: Antimicrobial activity against Streptococcus pyogenes ATCC 19615
Type: functional
Details: Streptococcus pyogenes, ATCC 19615
readout: MIC50 (mg/L)
Give a bare numeral; the unit mg/L is implied.

Consider the reported MIC50 for these compounds:
CC(=O)NC[C@H]1CN(c2ccc(N3CCOCC3)c(F)c2)C(=O)O1 ... 0.5
C[C@H]1c2cccc(O)c2C(=O)C2=C(O)[C@]3(O)C(=O)C(C(N)=O)=C(O)[C@@H](N(C)C)[C@@H]3[C@@H](O)[C@@H]21.O ... 2
C[C@@H](O)[C@H]1C(=O)N2C(C(=O)O)=C(SCCNC=N)C[C@H]12 [IMIPENEM ANHYDROUS] ... 0.5
CCCCCCCCCCCCCCCC(=O)N[C@@H](CCCCN)C(=O)N[C@@H](CCCCN)C(=O)O ... 1

Let us examine a further case.
## Input Can you look up the measured MIC50 of CN[C@H](CC(C)C)C(=O)N[C@H]1C(=O)N[C@@H](CC(N)=O)C(=O)N[C@H]2C(=O)N[C@H]3C(=O)N[C@H](C(=O)N[C@H](C(=O)O)c4cc(O)cc(O)c4-c4cc3ccc4O)[C@H](O)c3ccc(c(Cl)c3)Oc3cc2cc(c3O[C@@H]2O[C@H](CO)[C@@H](O)[C@H](O)[C@H]2O[C@H]2C[C@](C)(N)[C@H](O)[C@H](C)O2)Oc2ccc(cc2Cl)[C@H]1O for me?
## Output 0.5

====

Measured MBC50, listed per entry for reference.
Tested on: Prescottella equi
Assay: Antimicrobial activity against Rhodococcus equi ATCC 6939
Assay type: functional
The answer is to be given in µg/mL; state only the numeric part.

Study these solved cases before continuing.
CCCCCCCCCCCCCCCC(=O)N[C@@H](CCCCN)C(=O)N[C@@H](CCCCN)C(=O)O ... 4
CC(=O)NC[C@H]1CN(c2ccc(N3CCOCC3)c(F)c2)C(=O)O1 [LINEZOLID] ... 8
CC1(C)S[C@@H]2[C@H](NC(=O)[C@H](N)c3ccc(O)cc3)C(=O)N2[C@H]1C(=O)O [AMOXICILLIN] ... 8
CC[C@H]1OC(=O)[C@H](C)[C@@H](O[C@H]2C[C@@](C)(OC)[C@@H](O)[C@H](C)O2)[C@H](C)[C@@H](O[C@@H]2O[C@H](C)C[C@H](N(C)C)[C@H]2O)[C@](C)(O)C[C@@H](C)C(=O)[C@H](C)[C@@H](O)[C@]1(C)O [ERYTHROMYCIN] ... 32

## Input Name the reported MBC50 value associated with the compound C[C@H]1c2cccc(O)c2C(=O)C2=C(O)[C@]3(O)C(=O)C(C(N)=O)=C(O)[C@@H](N(C)C)[C@@H]3[C@@H](O)[C@@H]21.O [DOXYCYCLINE]
## Output 32

====

Tested on: Enterococcus faecalis
Test: Antimicrobial activity against vancomycin-resistant Enterococcus faecalis ATCC 51299
Type: functional
Conditions: Enterococcus faecalis, ATCC 51299
readout: MIC90 (µg/mL)
The answer is to be given in µg/mL; state only the numeric part.

CN[C@H](CC(C)C)C(=O)N[C@H]1C(=O)N[C@@H](CC(N)=O)C(=O)N[C@H]2C(=O)N[C@H]3C(=O)N[C@H](C(=O)N[C@H](C(=O)O)c4cc(O)cc(O)c4-c4cc3ccc4O)[C@H](O)c3ccc(c(Cl)c3)Oc3cc2cc(c3O[C@@H]2O[C@H](CO)[C@@H](O)[C@H](O)[C@H]2O[C@H]2C[C@](C)(N)[C@H](O)[C@H](C)O2)Oc2ccc(cc2Cl)[C@H]1O ... 64
C[C@H]1c2cccc(O)c2C(=O)C2=C(O)[C@]3(O)C(=O)C(C(N)=O)=C(O)[C@@H](N(C)C)[C@@H]3[C@@H](O)[C@@H]21.O ... 64
C[C@@H](O)[C@H]1C(=O)N2C(C(=O)O)=C(SCCNC=N)C[C@H]12 [IMIPENEM ANHYDROUS] ... 64
CCCCCCCCCCCCCCCC(=O)N[C@@H](CCCCN)C(=O)N[C@@H](CCCCN)C(N)=O ... 4
CC[C@H]1OC(=O)[C@H](C)[C@@H](O[C@H]2C[C@@](C)(OC)[C@@H](O)[C@H](C)O2)[C@H](C)[C@@H](O[C@@H]2O[C@H](C)C[C@H](N(C)C)[C@H]2O)[C@](C)(O)C[C@@H](C)C(=O)[C@H](C)[C@@H](O)[C@]1(C)O ... 64

## Input Entry under review: CC1(C)S[C@@H]2[C@H](NC(=O)[C@H](N)c3ccc(O)cc3)C(=O)N2[C@H]1C(=O)O . Reported MIC90?
## Output 64

## Input Request the reported MIC90 associated with CCCCCCCCCCCCCCCC(=O)N[C@@H](CCCCN)C(=O)N[C@@H](CCCCN)C(=O)O
## Output 4

## Input For the compound CC(=O)NC[C@H]1CN(c2ccc(N3CCOCC3)c(F)c2)C(=O)O1 , what MIC90 is on record?
## Output 2

====

System: Staphylococcus aureus
Assay: Antimicrobial activity against methicillin-resistant Staphylococcus aureus ATCC 43300
Type: functional
Conditions: Staphylococcus aureus, ATCC 43300
This section presents compounds with their documented MIC50 values.
Quick reminder: number only, in µg/mL, skip the unit.

Illustrative cases are given below, each with its answer.
CC[C@H]1OC(=O)[C@H](C)[C@@H](O[C@H]2C[C@@](C)(OC)[C@@H](O)[C@H](C)O2)[C@H](C)[C@@H](O[C@@H]2O[C@H](C)C[C@H](N(C)C)[C@H]2O)[C@](C)(O)C[C@@H](C)C(=O)[C@H](C)[C@@H](O)[C@]1(C)O ... 4
CC1(C)S[C@@H]2[C@H](NC(=O)[C@H](N)c3ccc(O)cc3)C(=O)N2[C@H]1C(=O)O ... 32

In the following, a different compound is considered.
## Input Notebook entry, Staphylococcus aureus assay: MIC50 of C[C@@H](O)[C@H]1C(=O)N2C(C(=O)O)=C(SCCNC=N)C[C@H]12 [IMIPENEM ANHYDROUS] = ?
## Output 16

====

# MBC50 per record follows
Test system: Enterococcus faecalis
Test: Antimicrobial activity against vancomycin-susceptible Enterococcus faecalis ATCC 29212
Type: functional
Answer shape: numeric part, then the unit.

The examples below pair each entry with its known result.
CC(=O)NC[C@H]1CN(c2ccc(N3CCOCC3)c(F)c2)C(=O)O1 ... 2 µg/mL
CC[C@H]1OC(=O)[C@H](C)[C@@H](O[C@H]2C[C@@](C)(OC)[C@@H](O)[C@H](C)O2)[C@H](C)[C@@H](O[C@@H]2O[C@H](C)C[C@H](N(C)C)[C@H]2O)[C@](C)(O)C[C@@H](C)C(=O)[C@H](C)[C@@H](O)[C@]1(C)O ... 32 µg/mL

Attention now shifts to the item below.
## Input Entry CC1(C)S[C@@H]2[C@H](NC(=O)[C@H](N)c3ccc(O)cc3)C(=O)N2[C@H]1C(=O)O has what MBC50?
## Output 16 µg/mL

====

System: Staphylococcus aureus
Test: Antimicrobial activity against methicillin-susceptible Staphylococcus aureus ATCC 29213
Assay type: functional
Settings: Staphylococcus aureus, ATCC 29213
readout: MIC50 (µg/mL)
Please reply with the bare figure in µg/mL and do not write the unit itself.

Below, 4 compounds whose answers are already recorded.
CC[C@H]1OC(=O)[C@H](C)[C@@H](O[C@H]2C[C@@](C)(OC)[C@@H](O)[C@H](C)O2)[C@H](C)[C@@H](O[C@@H]2O[C@H](C)C[C@H](N(C)C)[C@H]2O)[C@](C)(O)C[C@@H](C)C(=O)[C@H](C)[C@@H](O)[C@]1(C)O [ERYTHROMYCIN] ... 4
CCCCCCCCCCCCCCCC(=O)N[C@@H](CCCCN)C(=O)N[C@@H](CCCCN)C(N)=O ... 4
CC(=O)NC[C@H]1CN(c2ccc(N3CCOCC3)c(F)c2)C(=O)O1 [LINEZOLID] ... 0.5
CCCCCCCCCCCCCCCC(=O)N[C@@H](CCCCN)C(=O)N[C@@H](CCCCN)C(=O)O ... 4

From here, focus on the item given below.
## Input Given CN[C@H](CC(C)C)C(=O)N[C@H]1C(=O)N[C@@H](CC(N)=O)C(=O)N[C@H]2C(=O)N[C@H]3C(=O)N[C@H](C(=O)N[C@H](C(=O)O)c4cc(O)cc(O)c4-c4cc3ccc4O)[C@H](O)c3ccc(c(Cl)c3)Oc3cc2cc(c3O[C@@H]2O[C@H](CO)[C@@H](O)[C@H](O)[C@H]2O[C@H]2C[C@](C)(N)[C@H](O)[C@H](C)O2)Oc2ccc(cc2Cl)[C@H]1O [VANCOMYCIN] , state its recorded MIC50.
## Output 0.5

====

Tested on: Streptococcus pyogenes
Assay: Antimicrobial activity against Streptococcus pyogenes ATCC 19615
Assay type: functional
readout: MBC50 (µg/mL)
Number only, in µg/mL; omit the unit.

Look over these answered cases.
C[C@H]1c2cccc(O)c2C(=O)C2=C(O)[C@]3(O)C(=O)C(C(N)=O)=C(O)[C@@H](N(C)C)[C@@H]3[C@@H](O)[C@@H]21.O [DOXYCYCLINE] ... 8
CCCCCCCCCCCCCCCC(=O)N[C@@H](CCCCN)C(=O)N[C@@H](CCCCN)C(N)=O ... 2

## Input Which MBC50 is reported for this compound? CC1(C)S[C@@H]2[C@H](NC(=O)[C@H](N)c3ccc(O)cc3)C(=O)N2[C@H]1C(=O)O [AMOXICILLIN]
## Output 4
